B1: Pistol ribozyme (parent)
chain: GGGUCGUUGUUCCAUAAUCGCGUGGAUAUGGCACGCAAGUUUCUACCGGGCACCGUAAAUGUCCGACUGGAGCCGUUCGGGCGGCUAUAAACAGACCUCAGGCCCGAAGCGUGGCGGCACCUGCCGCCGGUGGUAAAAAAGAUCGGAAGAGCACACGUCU

# Variants of: B1
# assay.name: aptazyme ON/OFF ratio, guanine; higher = stronger switching; co-transcriptional cleavage with and without guanine
reported.property: aptazyme ON/OFF ratio
// return a plain number; no unit text

{"variant.id": "U7C U8G G9C U10G U11G C12G", "aptazyme ON/OFF ratio": 1.13}
{"variant.id": "U7G U8G U10G U11C C12A C13U", "aptazyme ON/OFF ratio": 1.46}
{"variant.id": "U10A U11G C12A C13U", "aptazyme ON/OFF ratio": 1.46}

Value lookup for aptazyme ON/OFF ratio; key = U7G G9C U10G U11G C12G C13U
1.12

Value lookup for aptazyme ON/OFF ratio; key = U7C U8G G9U U10C C12G C13G
1.34

Value lookup for aptazyme ON/OFF ratio; key = U7G U8G U10G U11C C12U C13A
1.12

Value lookup for aptazyme ON/OFF ratio; key = U7G U8C G9C U10C U11C
1.05

Value lookup for aptazyme ON/OFF ratio; key = U7A U8G G9U U10C U11C C12G
1.37

Value lookup for aptazyme ON/OFF ratio; key = U7A U8G U10C C12A C13A
1.41

Value lookup for aptazyme ON/OFF ratio; key = U7C G9A U10G U11G C12A C13U
1.13

All figures here come from the RNAGym collection of RNA variant scans (doi:10.1021/acssynbio.7b00057).
